- experimental.target: Sodium-dependent dopamine transporter (Homo sapiens, UniProt Q01959)
- Sequence (Q01959 whole entry): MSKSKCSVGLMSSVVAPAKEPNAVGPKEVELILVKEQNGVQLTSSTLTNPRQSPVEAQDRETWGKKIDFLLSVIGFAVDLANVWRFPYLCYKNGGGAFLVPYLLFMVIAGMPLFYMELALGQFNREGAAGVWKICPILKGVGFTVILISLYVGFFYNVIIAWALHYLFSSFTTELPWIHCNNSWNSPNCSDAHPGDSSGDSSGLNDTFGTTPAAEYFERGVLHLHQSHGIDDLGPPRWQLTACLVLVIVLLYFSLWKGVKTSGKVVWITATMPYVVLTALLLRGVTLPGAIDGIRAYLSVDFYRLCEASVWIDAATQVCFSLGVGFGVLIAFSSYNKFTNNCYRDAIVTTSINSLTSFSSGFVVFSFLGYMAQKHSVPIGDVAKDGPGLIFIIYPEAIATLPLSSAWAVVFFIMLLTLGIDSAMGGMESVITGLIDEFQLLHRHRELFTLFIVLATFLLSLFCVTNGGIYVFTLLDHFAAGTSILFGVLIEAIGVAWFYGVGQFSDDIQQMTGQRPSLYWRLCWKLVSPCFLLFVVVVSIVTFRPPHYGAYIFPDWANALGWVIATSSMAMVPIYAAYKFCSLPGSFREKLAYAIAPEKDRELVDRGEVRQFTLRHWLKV
- assay.method.text: Displacement of [3H]-Win35428 from human recombinant DAT receptor expressed in stable HEK cells after 90 mins by microbeta scintillation counting method
property.label: Ki (µM)
Give bare numbers, in µM.

Item under review: CCCNc1cc(C#Cc2ccc(Cl)s2)nc2c1ncn2[C@H]1[C@H](O)[C@H](O)[C@]2(C(=O)NC)C[C@H]12 . Reported Ki?
3.94

====

Please provide measured inhibition for the entries that follow.
- experimental.target: Adenosine receptor A2a (Homo sapiens, UniProt P29274)
- Sequence (P29274 whole entry): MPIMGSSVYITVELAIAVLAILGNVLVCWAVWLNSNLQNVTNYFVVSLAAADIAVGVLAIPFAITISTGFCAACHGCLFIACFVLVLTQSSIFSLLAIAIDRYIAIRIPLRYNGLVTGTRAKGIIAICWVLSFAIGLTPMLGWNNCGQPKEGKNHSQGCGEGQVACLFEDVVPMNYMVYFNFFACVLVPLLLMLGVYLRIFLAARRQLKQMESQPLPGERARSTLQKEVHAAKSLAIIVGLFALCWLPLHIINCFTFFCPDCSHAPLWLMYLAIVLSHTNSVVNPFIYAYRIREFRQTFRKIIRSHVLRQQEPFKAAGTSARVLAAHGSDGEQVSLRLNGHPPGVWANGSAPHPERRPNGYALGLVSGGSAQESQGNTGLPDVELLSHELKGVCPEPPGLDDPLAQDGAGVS
- assay.method.text: Displacement of [3H]2-[p-(2-carboxyethyl)phenyl-ethylamino]-5'-N-ethylcarboxamidoadenosine from human A2A receptor expressed in HEK293 cells at 10 uM by radio ligand binding assay relative to control
- Type: cell-based
One number for each entry, in %.

> print(dat)
                           structure.smiles  result
1  CNc1nc(C#Cc2ccc(Cl)s2)nc2c1ncn2[C@@H]1O[C@H](C(=O)OC)[C@@H](O)[C@H]1O       8
2  CNC(=O)[C@H]1O[C@@H](n2cnc3c(NC)nc(C#Cc4ccc(Cl)s4)nc32)[C@H](O)[C@@H]1O       7
3  CCOC(=O)[C@@]12C[C@@H]1[C@@H](n1cnc3c(NC)nc(C#Cc4ccc(F)s4)nc31)[C@H](O)[C@@H]2O      27
4  CNc1nc(C#Cc2ccc(Cl)s2)nc2c1ncn2[C@H]1[C@H](O)[C@H](O)[C@]2(C(=O)OC)C[C@H]12      20
5  CCOC(=O)[C@@]12C[C@@H]1[C@@H](n1cnc3c(NC)cc(C#Cc4ccc(Cl)s4)nc31)[C@H](O)[C@@H]2O      18

Please find the next compound below.
Item under review: CNC(=O)[C@H]1O[C@@H](n2cnc3c(NC)cc(C#Cc4ccc(F)s4)nc32)[C@H](O)[C@@H]1O . Reported inhibition?
15

====

- experimental.target: UniProt Q60612
- Sequence (whole entry): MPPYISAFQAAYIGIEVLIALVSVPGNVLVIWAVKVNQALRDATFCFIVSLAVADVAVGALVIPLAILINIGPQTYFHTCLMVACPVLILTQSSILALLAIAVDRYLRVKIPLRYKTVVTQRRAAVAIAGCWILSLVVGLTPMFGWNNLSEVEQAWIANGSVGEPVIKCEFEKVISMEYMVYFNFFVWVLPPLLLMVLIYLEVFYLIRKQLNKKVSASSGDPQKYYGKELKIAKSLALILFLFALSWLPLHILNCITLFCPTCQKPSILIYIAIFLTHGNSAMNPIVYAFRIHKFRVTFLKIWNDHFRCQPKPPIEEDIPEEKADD
- assay.method.text: Displacement of [125I]AB-MECA from recombinant mouse A1AR expressed in HEK293 cells at 10 uM by radio ligand binding assay relative to control
- Type: cell-based
- assay.conditions: filed as agonist
Please provide measured inhibition for the entries that follow.
One number for each entry, in %.

Some entries whose results are on file:
> print(dat)
                           structure.smiles  result
1  CCNc1cc(C#Cc2ccc(F)s2)nc2c1ncn2[C@H]1[C@H](O)[C@H](O)[C@]2(C(=O)NC)C[C@H]12      53
2  CCOC(=O)[C@@]12C[C@@H]1[C@@H](n1cnc3c(NC)cc(C#Cc4ccc(Cl)s4)nc31)[C@H](O)[C@@H]2O      54
3  CNc1nc(C#Cc2ccc(Cl)s2)nc2c1ncn2[C@@H]1O[C@H](C(=O)OC)[C@@H](O)[C@H]1O      53

Please find the next compound below.
Which inhibition is reported with UniProt Q60612 for this entry: CNC(=O)[C@@]12C[C@@H]1[C@@H](n1cnc3c(NC)cc(C#Cc4ccc(F)s4)nc31)[C@H](O)[C@@H]2O ?
51

====

- experimental.target: 5-hydroxytryptamine receptor 2B (Homo sapiens, UniProt P41595)
- Sequence (P41595 whole entry): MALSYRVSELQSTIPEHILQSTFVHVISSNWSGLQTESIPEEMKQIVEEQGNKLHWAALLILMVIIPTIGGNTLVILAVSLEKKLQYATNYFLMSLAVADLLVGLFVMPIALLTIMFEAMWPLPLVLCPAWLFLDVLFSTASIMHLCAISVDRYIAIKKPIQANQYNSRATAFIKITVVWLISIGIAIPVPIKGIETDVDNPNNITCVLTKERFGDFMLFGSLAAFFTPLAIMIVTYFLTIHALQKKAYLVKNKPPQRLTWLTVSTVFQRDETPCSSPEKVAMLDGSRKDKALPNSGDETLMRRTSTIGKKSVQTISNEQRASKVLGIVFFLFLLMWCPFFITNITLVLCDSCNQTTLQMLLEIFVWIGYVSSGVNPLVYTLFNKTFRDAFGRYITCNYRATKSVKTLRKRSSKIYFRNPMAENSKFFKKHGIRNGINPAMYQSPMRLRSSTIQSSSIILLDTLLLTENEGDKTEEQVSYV
- assay.method.text: Displacement of [3H]-LSD from recombinant human 5HT2B receptor expressed in stable HEK cells after 90 mins by microbeta scintillation counting method
property.label: Ki
Just so you know, I need the unit written after the number.

Which Ki is reported with 5-hydroxytryptamine receptor 2B (Homo sapiens, UniProt P41595) for this entry: CCCNc1cc(C#Cc2ccc(Cl)s2)nc2c1ncn2[C@H]1[C@H](O)[C@H](O)[C@]2(C(=O)NC)C[C@H]12 ?
760 nM

====

- experimental.target: Adenosine receptor A1 (Homo sapiens, UniProt P30542)
- Sequence (P30542 whole entry): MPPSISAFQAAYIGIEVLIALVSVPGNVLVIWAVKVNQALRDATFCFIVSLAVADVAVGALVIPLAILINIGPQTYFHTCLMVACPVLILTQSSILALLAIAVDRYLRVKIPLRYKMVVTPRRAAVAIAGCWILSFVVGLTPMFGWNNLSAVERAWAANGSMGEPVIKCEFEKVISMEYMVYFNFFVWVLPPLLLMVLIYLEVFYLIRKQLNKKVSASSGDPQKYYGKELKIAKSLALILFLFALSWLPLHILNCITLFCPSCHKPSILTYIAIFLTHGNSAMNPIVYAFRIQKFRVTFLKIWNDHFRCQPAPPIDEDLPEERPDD
property.label: pKi
Give bare numbers, as −log10 of the molar value.

Some entries whose results are on file:
> print(dat)
                           structure.smiles                       experimental.target  property.label  result
1  CCCNc1nc(C#Cc2ccc(F)s2)nc2c1ncn2[C@H]1[C@H](O)[C@H](O)[C@]2(C(=O)NC)C[C@H]12  Adenosine receptor A1 (Homo sapiens, UniProt P30542)             pKi    5.40
2  CCOC(=O)[C@@]12C[C@@H]1[C@@H](n1cnc3c(NC)nc(C#Cc4ccc(F)s4)nc31)[C@H](O)[C@@H]2O  Adenosine receptor A1 (Homo sapiens, UniProt P30542)             pKi    5.78

Please find the next compound below.
Item under review: CCCNc1nc(C#Cc2ccc(F)s2)nc2c1ncn2[C@@H]1O[C@H](C(=O)NC)[C@@H](O)[C@H]1O . Reported pKi?
6.43

====

- experimental.target: Adenosine receptor A2a (Homo sapiens, UniProt P29274)
- assay.method.text: Displacement of [3H]2-[p-(2-carboxyethyl)phenyl-ethylamino]-5'-N-ethylcarboxamidoadenosine from human A2A receptor expressed in HEK293 cells at 10 uM by radio ligand binding assay relative to control
- Format: cell-based
- assay.conditions: filed as agonist
property.label: inhibition (%)
One number for each entry, in %.

> print(dat)
                           structure.smiles  u  result
1  CCCNc1nc(C#Cc2ccc(Cl)s2)nc2c1ncn2[C@@H]1O[C@H](C(=O)NC)[C@@H](O)[C@H]1O  %      49
2  CNC(=O)[C@H]1O[C@@H](n2cnc3c(NC)nc(C#Cc4ccc(F)s4)nc32)[C@H](O)[C@@H]1O  %      45
3  CNC(=O)[C@@]12C[C@@H]1[C@@H](n1cnc3c(NC)cc(C#Cc4ccc(F)s4)nc31)[C@H](O)[C@@H]2O  %      56

Please find the next compound below.
Item under review: CCNc1cc(C#Cc2ccc(F)s2)nc2c1ncn2[C@H]1[C@H](O)[C@H](O)[C@]2(C(=O)NC)C[C@H]12 . Reported inhibition?
61

====

- experimental.target: Adenosine receptor A2a (Mus musculus)
- assay.method.text: Displacement of [3H]CGS21680 from mouse A2A receptor expressed in HEK293 cells at 10 uM by radio ligand binding assay relative to control
- Assay type: cell-based
Please provide measured inhibition for the entries that follow.
Give bare numbers, in %.

Some entries whose results are on file:
> print(dat)
                           structure.smiles  result
1  CCNc1cc(C#Cc2ccc(F)s2)nc2c1ncn2[C@H]1[C@H](O)[C@H](O)[C@]2(C(=O)NC)C[C@H]12       4
2  CNc1nc(C#Cc2ccc(Cl)s2)nc2c1ncn2[C@@H]1O[C@H](C(=O)OC)[C@@H](O)[C@H]1O      12
3  CNC(=O)[C@@]12C[C@@H]1[C@@H](n1cnc3c(NC)nc(C#Cc4ccc(F)s4)nc31)[C@H](O)[C@@H]2O       5
4  CCOC(=O)[C@@]12C[C@@H]1[C@@H](n1cnc3c(NC)cc(C#Cc4ccc(Cl)s4)nc31)[C@H](O)[C@@H]2O       5

Item under review: CNC(=O)[C@@]12C[C@@H]1[C@@H](n1cnc3c(NC)cc(C#Cc4ccc(F)s4)nc31)[C@H](O)[C@@H]2O . Reported inhibition?
6

====

- experimental.target: Adenosine receptor A3 (Homo sapiens)
- Sequence (P0DMS8 whole entry): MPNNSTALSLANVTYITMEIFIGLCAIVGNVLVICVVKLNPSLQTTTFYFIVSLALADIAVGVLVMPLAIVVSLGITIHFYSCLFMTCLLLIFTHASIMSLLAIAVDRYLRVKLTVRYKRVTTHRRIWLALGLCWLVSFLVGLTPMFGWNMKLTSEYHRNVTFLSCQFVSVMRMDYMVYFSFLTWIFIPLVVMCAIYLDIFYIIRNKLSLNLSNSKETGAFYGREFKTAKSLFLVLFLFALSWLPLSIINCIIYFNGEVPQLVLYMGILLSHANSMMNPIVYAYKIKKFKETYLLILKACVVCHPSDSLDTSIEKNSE
- assay.method.text: Displacement of [125I]N6-(4-amino-3-iodobenzyl)adenosine-5'-N-methyluronamide from human […] expressed in CHO cell membranes assessed as inhibitor constant by radio ligand binding assay
Please provide measured Ki for the entries that follow.
Answers are plain numbers, in nM.

> print(dat)
                           structure.smiles  property.label  result
1  CCCNc1nc(C#Cc2ccc(F)s2)nc2c1ncn2[C@H]1[C@H](O)[C@H](O)[C@]2(C(=O)NC)C[C@H]12              Ki    1.13
2  CCNc1cc(C#Cc2ccc(F)s2)nc2c1ncn2[C@H]1[C@H](O)[C@H](O)[C@]2(C(=O)NC)C[C@H]12              Ki    2.78
3  CCOC(=O)[C@@]12C[C@@H]1[C@@H](n1cnc3c(NC)nc(C#Cc4ccc(F)s4)nc31)[C@H](O)[C@@H]2O              Ki    10.4
4  CNC(=O)[C@@]12C[C@@H]1[C@@H](n1cnc3c(NC)nc(C#Cc4ccc(F)s4)nc31)[C@H](O)[C@@H]2O              Ki    0.28
5  CNC(=O)[C@H]1O[C@@H](n2cnc3c(NC)cc(C#Cc4ccc(F)s4)nc32)[C@H](O)[C@@H]1O              Ki    26.6
6  CNC(=O)[C@H]1O[C@@H](n2cnc3c(NC)nc(C#Cc4ccc(F)s4)nc32)[C@H](O)[C@@H]1O              Ki     2.3
7  CCCNc1nc(C#Cc2ccc(F)s2)nc2c1ncn2[C@@H]1O[C@H](C(=O)NC)[C@@H](O)[C@H]1O              Ki    8.51

Please find the next molecule below.
Which Ki is reported with Adenosine receptor A3 (Homo sapiens) for this entry: CNC(=O)[C@@]12C[C@@H]1[C@@H](n1cnc3c(NC)cc(C#Cc4ccc(F)s4)nc31)[C@H](O)[C@@H]2O ?
0.896

Reference for the values: ChEMBL document CHEMBL4725439
